# Measurement target: T1, Cynomolgus Monkey SIRPγ (plate-coated extracellular domain)
# T1 construct: also called Cyno SIRPγ
# T1 extracellular domain: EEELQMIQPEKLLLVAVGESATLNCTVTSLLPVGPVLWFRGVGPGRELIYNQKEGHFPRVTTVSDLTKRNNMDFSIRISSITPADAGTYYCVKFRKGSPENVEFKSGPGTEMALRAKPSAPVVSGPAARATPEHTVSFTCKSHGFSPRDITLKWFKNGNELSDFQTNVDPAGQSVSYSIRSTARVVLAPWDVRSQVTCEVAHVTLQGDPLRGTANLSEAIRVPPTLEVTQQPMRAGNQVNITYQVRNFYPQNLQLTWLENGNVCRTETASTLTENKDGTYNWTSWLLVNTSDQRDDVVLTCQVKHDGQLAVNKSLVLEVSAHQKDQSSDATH
# Method notes: ELISA, coated SIRP ECD (2 µg/mL), anti-human IgG, luminescence
Parameter: EC50 (read off the curve). Scope: all listed entries.

1) Antibody 68 (antibody, V domains shown) VH: QVQLVQSGAEVKKPGASVKVSCKASGYTFTSYYMYWVRQAPGQGLEWMGWINPNSGNTGYAQKFQGRVTMTRDTSTSTVYMELSSLRSEDTAVYYCAKDRRRGVGLAAAGTSAFDIWGQGTMVTVSS VL: DIQMTQSPSSLSASVGDRVTITCRASQSISNWLAWYQQKPGKAPKLLIYAASSLQSGVPSRFSGSGSGTDFTLTISSLQPEDFATYYCQQSYSTPYTFGQGTKLEIK = ~1 µg/mL
2) Antibody 82 (antibody, V domains shown) VH: QVQLVQSGAEVKKPGASVKVSCKASGHTFNNNYIHWVRQAPGQGLEWMGIINPSGGSTSYAQKFQGRVTMTRDTSTSTVYMELSSLRSEDTAVYYCARQIQDYGYYYYGMDVWGQGTTVTVSS VL: EIVMTQSPATLSVSPGERATLSCRASQSVSKYLAWYQQKPGQAPRLLIYAISARAAGIPARFSGSGSGTEFTLTISSLQSEDFAVYYCQQYYSSPPTFGQGTKVEIK = ~0.03 µg/mL
3) Antibody 76 (antibody, V domains shown) VH: QVQLVQSGAEVKKPGSSVKVSCKASGGTFSKIAVSWVRQAPGQGLEWMGLINPNSGGTDYAQKFQGRVTITADESTSTAYMELSSLRSEDTAVYYCAKDFRGGDYYYYGMDVWGQGTTVTVSS VL: EIVMTQSPATLSVSPGERATLSCRASQSVSSNLAWYQQKPGQAPRLLIYGASTRATGIPARFSGSGSGTEFTLTISSLQSEDFAVYYCQQYNTYPITFGQGTKVEIK = ~0.1 µg/mL

stdin: Report EC50 (read off the curve) for Antibody 56 (antibody, V domains shown) VH: QVQLVQSGAEVKKPGASVKVSCKASGYTFTSYYMHWVRQAPGQGLEWMGWVDPNNGDTGYAQKFQGRVTMTRDTSTSTVYMELSSLRSEDTAVYYCARDNWGSLDVWGKGTTVTVSS VL: DIVMTQSPLSLPVTPGEPASISCRSSQSLLHSNGYNYLDWYLQKPGQSPQLLIYAASTLQSGVPDRFSGSGSGTDFTLKISRVEAEDVGVYYCMQGLQTLYSFGQGTKLEIK please.
stdout: ~0.4 µg/mL

stdin: What do you get for Antibody 60 (antibody, V domains shown) VH: EVQLLESGGGLVQPGGSLRLSCAASGFTLGSYWMHWVRQAPGKGLEWVSLISWDGGSTYYADSVKGRFTISRDNSKNTLYLQMNSLRAEDTAVYYCAKGPWVGYSGYDLNYYYYGMDVWGQGTTVTVSS VL: DIQMTQSPSSLSASVGDRVTITCRASQDIRRALAWYQQKPGKAPKLLIYAASSLQSGVPSRFSGSGSGTDFTLTISSLQPEDFATYYCLQHNSYPPTFGQGTKLEIK ?
stdout: ~0.03 µg/mL

stdin: What do you get for Antibody 71 (antibody, V domains shown) VH: QVQLVQSGAEVKKPGASVKVSCKASGYTFTSYYIHWVRQAPGQGLEWMGTINPSGGSTSYAQKFQGRVTMTRDTSTSTVYMELSSLRSEDTAVYYCARETSRWLRDYYYGMDVWGQGTTVTVSS VL: DIVMTQSPLSLPVTPGEPASISCRSSQSLLHSNGYNYLDWYLQKPGQSPQLLIYDASSLESGVPDRFSGSGSGTDFTLKISRVEAEDVGVYYCMQGTHWPLTFGGGTKVEIK ?
stdout: ~0.02 µg/mL

stdin: What do you get for Antibody 6 (antibody, V domains shown) VH: QVQLVQSGAEVKKPGASVKVSCKASGYTFTGYHIHWVRQAPGQGLEWMGWINPNSGGTNYAQKFQGRVTMTRDTSINTAYMELNRLRSDDTAVFYCARERVGYCSRPSCLDDLNIWGQGTMVTVSS VL: DIQMTQSPSTLSASVGDRVTITCRASQSISSWLAWYQQKPGKAPKLLIYKASSLETGVPSRFSGSGSGTEFTLTISSLQPDDFATYYCQQYDSYYTFGQGTKLEIK ?
stdout: ~0.1 µg/mL

Source listed as patent US20240400677A1.
